Where these numbers come from: patent US12421276B2

# Assay type: in vivo, rat
# experimental_parameters: Rat, PO, 10 mg/kg equiv., n = 4; analyte: Parent (BASE STRUCTURE)
Where a SMILES comes first, the peptide text is derived from it. [ ]: non-standard residue; d: D form. The star is where a group is joined. ξ: configuration not given here. ξpY = NC(Cc1ccc(OP(=O)(O)O)cc1)C(=O)O; Ile(3ξ) = CCC(C)[C@H](N)C(=O)O; Hexanoyl = CCCCCC(=O)*; Ahx = NCCCCCC(=O)O

- compound: "CCCCCC(=O)NC(Cc1ccc(OC(=O)NCCN(C)C)cc1)C(=O)NC(C(=O)NCCCCCC(N)=O)C(C)CC (stereo not shown) [Compound A21]"
  AUC0-24 / ng·h/mL: 7.4
- compound: "CCCCCC(=O)N[C@@H](Cc1ccc(O)cc1)C(=O)N[C@H](C(=O)NCCCCCC(N)=O)[C@@H](C)CC [Base Structure, reference compound] (Hexanoyl-Tyr-Ile-[Ahx]-NH2)"
  AUC0-24 / ng·h/mL: 0.4
- compound: "CCCCCC(=O)NC(Cc1ccc(OP(=O)(OCCN(C)C)OCCN(C)C)cc1)C(=O)NC(C(=O)NCCCCCC(N)=O)C(C)CC (stereo not shown) [Compound A18]"
  AUC0-24 / ng·h/mL: 4.1
- compound: "CCCCCC(=O)NC(Cc1ccc(OP(=O)(O)O)cc1)C(=O)N[C@H](C(=O)NCCCCCC(N)=O)C(C)CC.N.N (stereo partly shown) [Compound A29] (Hexanoyl-[ξpY]-[Ile(3ξ)]-[Ahx]-NH2)"
  AUC0-24 / ng·h/mL: 35.9

---

# assay: Metabolic stability in simulated intestinal fluid (SIF), pH 6.8, with or without pancreatin
# Assay type: in vitro ADME
# experimental_parameters: simulated gi fluid, pH 6.8, −Pancreatin, 5 μM, 37° C.
test_readout: half-life (h)

- molecule: "CCCCCC(=O)N1C(Cc2ccc(OP(=O)([O-])[O-])cc2)C(=O)N(C(C(=O)NCCCCCC(N)=O)C(C)CC)C12CCN(C)CC2.[Na+].[Na+] (stereo not shown)"
  test_readout: "half-life"
  display_unit: "h"
  reported_result: 13.4

---

The entries below come with measured SIF Stability (pH 6.8) Half-Life (min) values attached.
# assay: Metabolic stability in simulated intestinal fluid (SIF), pH 6.8, with or without pancreatin
# Type: in vitro ADME
# experimental_parameters: +Pancreatin (1%), 5 μM, 37° C.
Where a SMILES comes first, the peptide text is derived from it. [ ]: non-standard residue; d: D form. The star is where a group is joined. pY = N[CH](Cc1ccc(OP(=O)(O)O)cc1)C(=O)O; Hexanoyl = CCCCCC(=O)*; Ahx = NCCCCCC(=O)O
test_readout: SIF Stability (pH 6.8) Half-Life (min)

- compound: "CCCCCC(=O)NC(Cc1ccc(OC(=O)NCCN(C)C)cc1)C(=O)NC(C(=O)NCCCCCC(N)=O)C(C)CC (centres unmarked)"
  test_readout: "SIF Stability (pH 6.8) Half-Life (min)"
  reported_result: 3006.4
- compound: "CCCCCC(=O)NC(Cc1ccc(OP(=O)(OCCN(C)C)OCCN(C)C)cc1)C(=O)NC(C(=O)NCCCCCC(N)=O)C(C)CC (centres unmarked)"
  test_readout: "SIF Stability (pH 6.8) Half-Life (min)"
  reported_result: 39.4
- compound: "CCCCCC(=O)NC(Cc1ccc(OP(=O)([O-])O)cc1)C(=O)NC(C(=O)NCCCCCC(N)=O)C(C)CC.[Na+] (centres unmarked) [Compound A30] (Hexanoyl-[pY]-Ile-[Ahx]-NH2; configuration not given here)"
  test_readout: "SIF Stability (pH 6.8) Half-Life (min)"
  reported_result: 156.6
- compound: "CCCCCC(=O)NC(Cc1ccc(OC(=O)N2CCN(C)CC2)cc1)C(=O)NC(C(=O)NCCCCCC(N)=O)C(C)CC (centres unmarked)"
  test_readout: "SIF Stability (pH 6.8) Half-Life (min)"
  reported_result: 86.6

---

The entries below come with measured SGF Stability (pH 1.2) 0 min values attached.
# assay: Metabolic stability in simulated gastric fluid (SGF), pH 1.2, with or without pepsin
# Type: in vitro ADME
# experimental_parameters: −Pepsin, 5 μM, 37° C., 0 min
Where a SMILES comes first, the peptide text is derived from it. [ ]: non-standard residue; d: D form. The star is where a group is joined. Hexanoyl = CCCCCC(=O)*; Ahx = NCCCCCC(=O)O
test_readout: SGF Stability (pH 1.2) 0 min (%)

- molecule: "CCCCCC(=O)NC(Cc1ccc(OP(=O)(OCCN(C)C)OCCN(C)C)cc1)C(=O)NC(C(=O)NCCCCCC(N)=O)C(C)CC (stereo not drawn)"
  test_readout: "SGF Stability (pH 1.2) 0 min"
  display_unit: "%"
  reported_result: 100
- molecule: "CCCCCC(=O)NC(Cc1ccc(OC(=O)N2CCN(C)CC2)cc1)C(=O)NC(C(=O)NCCCCCC(N)=O)C(C)CC (stereo not drawn)"
  test_readout: "SGF Stability (pH 1.2) 0 min"
  display_unit: "%"
  reported_result: 100
- molecule: "CCCCCC(=O)N[C@@H](Cc1ccc(O)cc1)C(=O)N[C@H](C(=O)NCCCCCC(N)=O)[C@@H](C)CC [Base Structure, reference compound] (Hexanoyl-Tyr-Ile-[Ahx]-NH2)"
  test_readout: "SGF Stability (pH 1.2) 0 min"
  display_unit: "%"
  reported_result: 100

---

The entries below come with measured SGF Stability (pH 1.2) 120 min values attached.
# assay: Metabolic stability in simulated gastric fluid (SGF), pH 1.2, with or without pepsin
# Assay type: in vitro ADME
# experimental_parameters: +Pepsin (0.32%), 5 μM, 37° C., 120 min
Where a SMILES comes first, the peptide text is derived from it. [ ]: non-standard residue; d: D form. The star is where a group is joined. ξ: configuration not given here. pY = N[CH](Cc1ccc(OP(=O)(O)O)cc1)C(=O)O; ξpY = NC(Cc1ccc(OP(=O)(O)O)cc1)C(=O)O; Ile(3ξ) = CCC(C)[C@H](N)C(=O)O; Hexanoyl = CCCCCC(=O)*; Ahx = NCCCCCC(=O)O

- compound: "CCCCCC(=O)NC(Cc1ccc(OC(=O)N2CCN(C)CC2)cc1)C(=O)NC(C(=O)NCCCCCC(N)=O)C(C)CC (stereo not drawn)"
  SGF Stability (pH 1.2) 120 min: "37%"
- compound: "CCCCCC(=O)NC(Cc1ccc(OP(=O)(O)O)cc1)C(=O)N[C@H](C(=O)NCCCCCC(N)=O)C(C)CC.N.N (stereo partly drawn) [Compound A29] (Hexanoyl-[ξpY]-[Ile(3ξ)]-[Ahx]-NH2)"
  SGF Stability (pH 1.2) 120 min: "63%"
- compound: "CCCCCC(=O)N1C(Cc2ccc(OP(=O)([O-])[O-])cc2)C(=O)N(C(C(=O)NCCCCCC(N)=O)C(C)CC)C12CCN(C)CC2.[Na+].[Na+] (stereo not drawn)"
  SGF Stability (pH 1.2) 120 min: "89%"
- compound: "CCCCCC(=O)NC(Cc1ccc(OP(=O)([O-])O)cc1)C(=O)NC(C(=O)NCCCCCC(N)=O)C(C)CC.[Na+] (stereo not drawn) [Compound A30] (Hexanoyl-[pY]-Ile-[Ahx]-NH2; configuration not given here)"
  SGF Stability (pH 1.2) 120 min: "64%"
- compound: "CCCCCC(=O)NC(Cc1ccc(OC(=O)NCCN(C)C)cc1)C(=O)NC(C(=O)NCCCCCC(N)=O)C(C)CC (stereo not drawn)"
  SGF Stability (pH 1.2) 120 min: "74%"
- compound: "CCCCCC(=O)NC(Cc1ccc(OP(=O)(OCCN(C)C)OCCN(C)C)cc1)C(=O)NC(C(=O)NCCCCCC(N)=O)C(C)CC (stereo not drawn)"
  SGF Stability (pH 1.2) 120 min: "17%"

---

The entries below come with measured Plasma Stability Half-Life values attached.
# assay: Plasma stability study, human plasma
# Assay type: in vitro ADME
# experimental_parameters: Human plasma, 1 μM, 37° C.
Where a SMILES comes first, the peptide text is derived from it. [ ]: non-standard residue; d: D form. The star is where a group is joined. pY = N[CH](Cc1ccc(OP(=O)(O)O)cc1)C(=O)O; Hexanoyl = CCCCCC(=O)*; Ahx = NCCCCCC(=O)O
test_readout: Plasma Stability Half-Life (h)

- molecule: "CCCCCC(=O)NC(Cc1ccc(OC(=O)N2CCN(C)CC2)cc1)C(=O)NC(C(=O)NCCCCCC(N)=O)C(C)CC (stereo not shown) [Compound A20]"
  reported_result: 49.295
- molecule: "CCCCCC(=O)NC(Cc1ccc(OC(=O)NCCN(C)C)cc1)C(=O)NC(C(=O)NCCCCCC(N)=O)C(C)CC (stereo not shown) [Compound A21]"
  reported_result: 1.22
- molecule: "CCCCCC(=O)N[C@@H](Cc1ccc(O)cc1)C(=O)N[C@H](C(=O)NCCCCCC(N)=O)[C@@H](C)CC [Base Structure, reference compound] (Hexanoyl-Tyr-Ile-[Ahx]-NH2)"
  reported_result: 209.3
- molecule: "CCCCCC(=O)NC(Cc1ccc(OP(=O)([O-])O)cc1)C(=O)NC(C(=O)NCCCCCC(N)=O)C(C)CC.[Na+] (stereo not shown) [Compound A30] (Hexanoyl-[pY]-Ile-[Ahx]-NH2; configuration not given here)"
  reported_result: 1.4
